# Lookup of reported protein stability index keyed by entry
# Tested on: Saccharomyces cerevisiae
# assay-name: protein stability index of tFT-peptide fusion (C-terminal peptide) (PSI (0-1 scale)); higher = more stable (slower turnover)
# condition-summary: genetic background: wild type; temperature: 30 C
measured-metric: protein stability index

sequence-input	reported-result
PSSLRLPLCSPL	0.704
GRKGVIAELIKI	0.659
ESRARRRQGGKR	0.738
SPRLPAPPPPPQ	0.702
GPRGGRLSWAPG	0.622
GWGGIGDGGPVW	0.679
RIIIRNIKKKTE	0.641
LELADGRCARSG	0.8
KPKANTEKIPIQ	0.68
GGGEGREEQEGR	0.701
VFCLPISAPPLH	0.685
LVCLFFLSSLFF	0.461
RLPVKQQVLPDK	0.678
RCGCLRVPTGGG	0.679
QLSTSGLTTTAW	0.707
PPTLPPPRTLPL	0.698
VGLLWEYVRLDG	0.708
FGRVRFCFRMRS	0.671
PNQTRPHPHHNL	0.69
FCLPVFCVPSHF	0.634
GDRGFTTEAGNC	0.67
FGARVWVGRVGG	0.657
ILFLGSLGCPGG	0.697
TSAPPPPPPPPP	0.608
LLNTSPPRSVLH	0.653
GPLVGGDGRWVG	0.706
PSTPLPHLTRPS	0.677
RGIRDQRKSKDK	0.663

---

# System: Saccharomyces cerevisiae
# assay-name: protein stability index of tFT-peptide fusion (C-terminal peptide) (PSI (0-1 scale)); higher = more stable (slower turnover)
# condition-summary: genetic background: wild type; temperature: 30 C

sequence-input	protein stability index
KEWGGEGRDAWG	0.683
GGGIERYCWLQI	0.708
PPTPPRPPPRTT	0.69
PSPRPSPRPSPR	0.692
PPHRRTPQRRCP	0.701
HPETIGHNVRPR	0.708
NGPAPTFSPAVR	0.685
PHASLAPPLPPP	0.58
SEAFDSSARRAL	0.541
ASPLYPRPPVRG	0.651
SSYYTGVVTACL	0.659
PSPPPSPPSPPS	0.708

---

# System: Saccharomyces cerevisiae;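 note: PSI is a weighted mean of sequencing reads over stability bins, variants kept only with over 10 reads, mCherry proximal and sfGFP distal, peptide attached via GGGS linker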
# assay-name: protein stability index of tFT-peptide fusion (C-terminal peptide) (PSI (0-1 scale)); higher = more stable (slower turnover)
# condition-summary: genetic background: wild type; temperature: 30 C
Values of protein stability index greater than or equal to 0.7 map to Condition met; values below map to Condition not met.

sequence-input	target-desc	assigned-category
GSVLFPLPFRPF	Saccharomyces cerevisiae	Condition not met
YFALLMLTPPPP	Saccharomyces cerevisiae	Condition not met
IRGAARRRTQGY	Saccharomyces cerevisiae	Condition met
VLLRHRPKYACR	Saccharomyces cerevisiae	Condition not met
VLGDSASFWSCP	Saccharomyces cerevisiae	Condition met
RPPPGTPPGWSP	Saccharomyces cerevisiae	Condition met
GSWGGGWRYVGW	Saccharomyces cerevisiae	Condition met
ITFTCRHQGKKK	Saccharomyces cerevisiae	Condition met
VWSGGCVSRWSG	Saccharomyces cerevisiae	Condition met
FWGQNKVCLSCQ	Saccharomyces cerevisiae	Condition not met
LFRPSFFFFVCQ	Saccharomyces cerevisiae	Condition not met
FLSRHFLFLSFV	Saccharomyces cerevisiae	Condition not met
PPPPYPSTRHSP	Saccharomyces cerevisiae	Condition not met
GRGVQWRAVGWE	Saccharomyces cerevisiae	Condition met
LTHSTLCYASDL	Saccharomyces cerevisiae	Condition not met
PPSPPPPPAHPP	Saccharomyces cerevisiae	Condition not met
WSRGGGGHKEAM	Saccharomyces cerevisiae	Condition not met
APSLLAPPPLRP	Saccharomyces cerevisiae	Condition not met
LGLFGSVVVCGQ	Saccharomyces cerevisiae	Condition not met
RLWKQPWLTMAF	Saccharomyces cerevisiae	Condition not met
FCVVGKGWKGEG	Saccharomyces cerevisiae	Condition not met
VAGTLPFMEFTS	Saccharomyces cerevisiae	Condition met
RSDKRTRYRIII	Saccharomyces cerevisiae	Condition met
DKFEEENIKKKK	Saccharomyces cerevisiae	Condition met
DPTPLALSPDHP	Saccharomyces cerevisiae	Condition not met
VKQFLICKNGRS	Saccharomyces cerevisiae	Condition met
EVSRCRTVPVWL	Saccharomyces cerevisiae	Condition not met
SPLPPPLCPPPL	Saccharomyces cerevisiae	Condition not met
LMLGARVSRRIH	Saccharomyces cerevisiae	Condition not met
ALRGESWKSKQG	Saccharomyces cerevisiae	Condition not met
RKIRRLIVKKGI	Saccharomyces cerevisiae	Condition not met
GSAGSAVRNVVS	Saccharomyces cerevisiae	Condition not met
